Target: PDE10 (Rattus norvegicus)
Construct: from tissue; host or cells: rat brain sections, striatum (in vivo dosing, ex vivo autoradiography)
Experiment: PDE10 occupancy ([3H]-MP-10, striatum)
Format: in vivo
Conditions: rat; single dose 10 mg/kg, oral; read-out: SD po % occupancy at 10 mg/kg
valueKind: receptor occupancy at 10 mg/kg (%)
Response body: numeric value in %, unit text excluded.

Sure, the documented receptor occupancy at 10 mg/kg for COCCn1cc(-c2c(OC)nc3c(N4CCOCC4)ccnn23)cn1 is 0

Sure, the documented receptor occupancy at 10 mg/kg for FC(F)(F)Cn1cc(-c2c(C3CC3)nc3c(N4CCOCC4)ccnn23)cn1 is 11

Sure, the documented receptor occupancy at 10 mg/kg for Cc1nc2c(N3CCOCC3)ccnn2c1-c1cnn(CC2CC2(F)F)c1 (stereo not drawn) is 4

Sure, the documented receptor occupancy at 10 mg/kg for COCCn1cc(-c2c(C)nc3c(N4CCOCC4)cc(C(F)(F)F)nn23)cn1 is 6

Sure, the documented receptor occupancy at 10 mg/kg for Cc1nc2c(N3CCOCC3)ccnn2c1-c1cnn(CC(F)(F)F)c1 is 12

Sure, the documented receptor occupancy at 10 mg/kg for Cc1nc2c(N3CCOCC3)ccnn2c1-c1ccc(OCC(F)(F)F)nc1 is 38

====

Listed molecules paired with reported ED50
Target: PDE10 (Rattus norvegicus, UniProt Q9QYJ6)
Construct: from tissue; host or cells: rat brain sections, striatum (in vivo dosing, ex vivo autoradiography)
Sequence (Q9QYJ6 whole entry): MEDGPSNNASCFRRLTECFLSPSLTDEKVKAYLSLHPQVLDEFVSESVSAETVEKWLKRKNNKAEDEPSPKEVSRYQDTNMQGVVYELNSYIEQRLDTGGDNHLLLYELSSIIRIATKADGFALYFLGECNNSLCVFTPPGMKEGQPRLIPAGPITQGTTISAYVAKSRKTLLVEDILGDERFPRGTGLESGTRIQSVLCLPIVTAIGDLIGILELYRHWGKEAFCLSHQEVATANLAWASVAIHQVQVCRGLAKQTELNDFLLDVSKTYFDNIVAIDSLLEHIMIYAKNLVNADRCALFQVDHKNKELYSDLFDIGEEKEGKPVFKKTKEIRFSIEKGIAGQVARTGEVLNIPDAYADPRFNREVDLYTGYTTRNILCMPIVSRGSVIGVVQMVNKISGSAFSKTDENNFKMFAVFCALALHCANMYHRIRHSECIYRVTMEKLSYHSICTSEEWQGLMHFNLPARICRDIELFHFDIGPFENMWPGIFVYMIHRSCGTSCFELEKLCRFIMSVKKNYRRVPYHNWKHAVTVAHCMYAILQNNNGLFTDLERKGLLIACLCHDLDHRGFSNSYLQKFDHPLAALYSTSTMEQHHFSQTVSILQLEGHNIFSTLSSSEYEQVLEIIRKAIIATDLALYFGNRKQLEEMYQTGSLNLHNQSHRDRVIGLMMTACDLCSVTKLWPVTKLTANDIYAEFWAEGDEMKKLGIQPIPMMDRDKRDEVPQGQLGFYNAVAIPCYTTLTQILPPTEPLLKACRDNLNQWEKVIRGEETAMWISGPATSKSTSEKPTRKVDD
Test: PDE10 occupancy ([3H]-MP-10, striatum)
Type: in vivo
Settings: rat, sc; dose response, subcutaneous administration; read-out: PDE10 in vivo occupancy ED50 sc
Response body: numeric value in mg/kg, unit text excluded.

{"molecule": "Cc1nc2c(-c3ccncc3)ccnn2c1-c1cnn(CC(C)C)c1 [compound 124]", "assayedTarget": "PDE10 (Rattus norvegicus, UniProt Q9QYJ6)", "measurement": 3}

COCCc1ccc(-c2c(C)nc3c(N4CCOCC4)ccnn23)cn1 [compound 1] on PDE10 (Rattus norvegicus, UniProt Q9QYJ6) gives ED50 = 0.48

COC(C)(C)Cc1ccc(-c2c(C)nc3c(-c4ccncc4)ccnn23)cn1 [compound 7] on PDE10 (Rattus norvegicus, UniProt Q9QYJ6) gives ED50 = 1.6

COCCc1ccc(-c2c(C3CC3)nc3c(N4CCOCC4)ccnn23)cn1 [compound 22] on PDE10 (Rattus norvegicus, UniProt Q9QYJ6) gives ED50 = 0.94

====

Target: other members of the PDE family (Homo sapiens, UniProt Q9HCR9)
Sequence (Q9HCR9 whole entry): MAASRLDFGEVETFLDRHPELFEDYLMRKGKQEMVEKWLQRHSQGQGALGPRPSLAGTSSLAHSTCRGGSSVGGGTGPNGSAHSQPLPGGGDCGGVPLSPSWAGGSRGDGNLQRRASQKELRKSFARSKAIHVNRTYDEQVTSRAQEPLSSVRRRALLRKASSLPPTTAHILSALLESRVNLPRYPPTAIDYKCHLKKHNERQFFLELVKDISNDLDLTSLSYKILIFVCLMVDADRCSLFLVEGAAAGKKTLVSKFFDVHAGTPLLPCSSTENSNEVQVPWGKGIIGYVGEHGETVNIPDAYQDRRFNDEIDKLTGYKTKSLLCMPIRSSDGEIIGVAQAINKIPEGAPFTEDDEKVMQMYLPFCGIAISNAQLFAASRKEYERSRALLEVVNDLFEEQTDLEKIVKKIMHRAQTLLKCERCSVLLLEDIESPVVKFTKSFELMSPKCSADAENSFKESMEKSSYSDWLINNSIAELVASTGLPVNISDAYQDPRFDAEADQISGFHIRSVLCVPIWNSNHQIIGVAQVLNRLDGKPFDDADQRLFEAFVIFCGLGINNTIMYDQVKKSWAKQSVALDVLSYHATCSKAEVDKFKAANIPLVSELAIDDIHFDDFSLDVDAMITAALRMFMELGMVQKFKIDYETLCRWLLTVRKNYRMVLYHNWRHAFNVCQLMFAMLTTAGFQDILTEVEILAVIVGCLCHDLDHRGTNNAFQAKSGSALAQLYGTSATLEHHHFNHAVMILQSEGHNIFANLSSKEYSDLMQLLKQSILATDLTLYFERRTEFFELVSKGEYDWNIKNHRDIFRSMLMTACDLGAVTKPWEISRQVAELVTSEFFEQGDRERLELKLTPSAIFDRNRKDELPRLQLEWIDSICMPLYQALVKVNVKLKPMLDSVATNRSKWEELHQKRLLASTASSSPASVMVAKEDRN
Assay: In vitro PDE selectivity assay (SPA), other members of the PDE family (protocols in Table A)
Assay type: biochemical
Conditions: hPDE11A4; read-out: PDE 11A4 (expressed as pIC50) (converted)
Could you mark each record True if its IC50 falls strictly under 2 µM, and False if it equals or exceeds it?

Below, 5 compounds whose answers are already recorded.
{"smilesData": "COCCc1ccc(-c2c(C3CC3)nc3c(N4CCOCC4)ccnn23)cn1", "assignedCategory": "False"}
{"smilesData": "Cc1nc2c(N3CCOCC3)ccnn2c1-c1cnn(CC(C)C)c1", "assignedCategory": "False"}
{"smilesData": "CC(C)Cn1cc(-c2c(C3CC3)nc3c(-c4ccncc4)ccnn23)cn1", "assignedCategory": "True"}
{"smilesData": "COCCn1cc(-c2c(C3CC3)nc3c(-c4ccncc4)ccnn23)cn1", "assignedCategory": "True"}
{"smilesData": "COCCn1cc(-c2c(C)nc3c(N4CCOCC4)cc(C)nn23)cn1", "assignedCategory": "False"}

*Q* Input Cc1nc2c(-c3ccncc3)ccnn2c1-c1cnn(CC(C)C)c1 ; condition: IC50 strictly below 2 µM. Does it hold?
*A* False

*Q* Input COCCOc1ccc(-c2c(C)nc3c(N4CCOCC4)ccnn23)cn1 ; condition: IC50 strictly below 2 µM. Does it hold?
*A* False

*Q* Input CCc1nc2c(N3CCOCC3)ccnn2c1-c1cnn(CCOC)c1 ; condition: IC50 strictly below 2 µM. Does it hold?
*A* False

*Q* Input Cc1nc2c(N3CCOCC3)ccnn2c1-c1ccc(N2CCNCC2)nc1 ; condition: IC50 strictly below 2 µM. Does it hold?
*A* False

*Q* Input Cc1nc2c(N3CCOCC3)ccnn2c1-c1ccnc(N2CCOCC2)c1 ; condition: IC50 strictly below 2 µM. Does it hold?
*A* False

*Q* Input COCCn1cc(-c2c(C)nc3c(N4CCOCC4)cc(C4CC4)nn23)cn1 ; condition: IC50 strictly below 2 µM. Does it hold?
*A* False

The measured values listed here are drawn from patent US20120220581A1.
